Kindly state kinase still bound, per cent of control for each of the entries shown.
- Tested on: FLT3 (human), P36888 [ITD]
- Sequence (P36888 whole entry, looked up, change not shown): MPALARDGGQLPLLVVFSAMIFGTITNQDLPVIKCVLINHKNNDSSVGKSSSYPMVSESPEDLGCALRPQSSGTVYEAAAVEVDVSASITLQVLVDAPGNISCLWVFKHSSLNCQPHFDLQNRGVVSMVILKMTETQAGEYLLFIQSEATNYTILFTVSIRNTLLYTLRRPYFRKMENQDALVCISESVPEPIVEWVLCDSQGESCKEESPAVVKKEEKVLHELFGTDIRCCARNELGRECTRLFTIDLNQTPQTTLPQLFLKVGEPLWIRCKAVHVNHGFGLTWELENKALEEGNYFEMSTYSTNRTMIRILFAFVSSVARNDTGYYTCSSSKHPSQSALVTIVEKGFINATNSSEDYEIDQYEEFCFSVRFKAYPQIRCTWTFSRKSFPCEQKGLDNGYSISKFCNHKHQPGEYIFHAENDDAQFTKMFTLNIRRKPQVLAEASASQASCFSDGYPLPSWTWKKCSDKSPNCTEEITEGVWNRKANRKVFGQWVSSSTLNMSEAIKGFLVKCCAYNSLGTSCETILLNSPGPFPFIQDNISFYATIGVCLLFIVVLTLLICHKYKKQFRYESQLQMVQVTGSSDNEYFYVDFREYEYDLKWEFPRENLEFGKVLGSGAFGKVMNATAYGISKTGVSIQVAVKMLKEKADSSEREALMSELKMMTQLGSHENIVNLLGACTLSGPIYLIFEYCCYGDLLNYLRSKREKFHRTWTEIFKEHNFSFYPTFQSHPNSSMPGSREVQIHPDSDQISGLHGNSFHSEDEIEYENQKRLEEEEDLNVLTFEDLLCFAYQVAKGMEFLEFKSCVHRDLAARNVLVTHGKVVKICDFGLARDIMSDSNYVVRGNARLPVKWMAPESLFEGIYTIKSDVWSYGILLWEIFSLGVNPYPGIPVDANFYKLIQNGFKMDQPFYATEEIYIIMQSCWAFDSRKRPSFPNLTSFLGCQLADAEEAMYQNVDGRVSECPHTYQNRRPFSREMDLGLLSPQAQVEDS
- protocol details: KINOMEscan competition binding
- run conditions: compound 10.0 µM
One number for each entry, in %.

Field: example entries. Status: answers known.
COc1ccc(N(C(=O)Oc2c(C)cccc2C)c2ccnc(Nc3ccc(N4CCN(C)CC4)cc3)n2)c(OC)c1
4.8
Nc1ccc(-c2ccc3ncc4ccc(=O)n(-c5cccc(C(F)(F)F)c5)c4c3c2)cn1
45

As a next step, examine the compound that follows.
According to the records, this compound "COc1cc(N2CCN(C)CC2)ccc1Nc1ncc2c(n1)N(C)c1ccccc1C(=O)N2C" displays kinase still bound, per cent of control of 100

Where do the numbers come from? From the kinase profiling compilation of Christmann-Franck et al. (2016).
